Tested on: Plasmodium falciparum
Experiment: GSK_TCMDC: Inhibition of Plasmodium falciparum 3D7 in whole red blood cells, using parasite LDH activity as an index of growth. Test compounds present at 2uM
Format: functional
PROPERTY: Inhibition (%)
Number in %, nothing else.

Solved entries (count: 8):
CCOc1cc2ncnc(Nc3ccc(OCc4ccccc4Br)c(OC)c3)c2cc1OCC.Cl    100
COc1ccc(C=NN=c2c3ccccc3[nH]c3ccccc23)c2ccccc12    82
O=C(CSc1nnc(-c2ccccc2Br)[nH]1)c1c[nH]c2ccccc12    100
CCC(C)(C)c1ccc(N2C(N)=NC(N)=NC2(C)C)cc1.Cl    91
C[C@H](Cc1ccc(OCCCCCCOc2ccc(C[C@@H](C)NC[C@H](O)c3cccc(Cl)c3)cc2)cc1)NC[C@H](O)c1cccc(Cl)c1.Cl    99
CCOc1ccc(Br)cc1/C=C/C(=O)Nc1ccc2c(c1)CN(C)CCC2.O=C(O)C(F)(F)F    97
COc1cc2nc(-c3ccccc3)nc(N3CCN(CC(=O)N4CCCC4)CC3)c2cc1OC    84
O=C(NCCN1CCCC1)c1cccc(-c2ccc(-c3nc4cc(C(F)(F)F)ccc4[nH]3)cc2)c1    100

State the recorded Inhibition for this entry: O=C(NC1CCN(Cc2ccc3c(c2)OCCO3)CC1)c1ccc(-c2cccc(C(F)(F)F)c2)s1.O=C(O)C(F)(F)F
100

====

Tested on: Plasmodium falciparum
Assay: GSK_TCMDC: Inhibition of Plasmodium falciparum 3D7 in whole red blood cells, using parasite LDH activity as an index of growth. Test compounds present at 2uM
Assay type: functional
PROPERTY: Inhibition (%)
Number in %, nothing else.

Br.CCCCC(NCC)c1ccc(OCCOc2ccc(C(CCCC)NCC)cc2)cc1 (centres undefined)    100

State the recorded Inhibition for this entry: CN1CCC(N2CCN(CCOc3cc(NC(=O)/C=C/c4ccccc4Cl)ccc3Br)CC2)CC1.O=C(O)C(=O)O
100

Okay, and CCc1c[nH]c2c(N3CCCS3(=O)=O)cc(C(=O)N[C@@H](Cc3ccccc3)[C@H](O)CNC3CCCCC3)cc12.O=CO ?
99

Okay, and CS(=O)(=O)CCNc1cc(N2CCc3ncnc(Nc4ccc(OCc5cccc(F)c5)c(Cl)c4)c3C2)ncn1 ?
96

Okay, and O=C(NOCc1ccccc1)c1cc(Cl)ccc1O ?
83

Okay, and CN(C)CCCOc1ccc(CCNCc2cccc(Oc3ccc(Cl)cc3)c2)cc1.O=C(O)C(F)(F)F ?
94

Okay, and O=c1[nH]c2c(cc1CNC1CCCCC1)c(-c1cccc(F)c1)nn2-c1ccccc1 ?
95

Okay, and CCC(C)Oc1ccc2nc(N)nc(N)c2c1Cl (centres undefined) ?
96

Okay, and N=C(N)NC(=O)Nc1cc(Br)c(Cl)c(Br)c1 ?
100

Okay, and Cc1cccc(C)c1/N=C1\NC(=S)N(c2cccc(Cl)c2)C12CCC(C(C)(C)C)CC2 (centres undefined) ?
87

Okay, and C=CCOc1ccc(-c2c(C)[nH]c(C)c(Br)c2=O)cc1 ?
98

Okay, and COc1ccc(Nc2ncc(Cl)c(Nc3cccnc3C(N)=O)n2)cc1N1CCN(C)CC1.Cl ?
95

Okay, and CCC(C)NS(=O)(=O)c1ccc2nc(Nc3ccc(C)cc3)n(C3CCCCC3)c2c1 (centres undefined) ?
97

Okay, and Cc1cccc2nc(-c3ccc(-c4ccc(CNCCc5ccncc5)cc4)cc3)[nH]c12.O=C(O)C(F)(F)F ?
100

Okay, and COc1ccc(NC(=O)Nc2cccc(-c3cccc(-c4nc5cccc(C)c5[nH]4)c3)c2)cc1 ?
100

Okay, and COc1cccc(CNC(=O)c2cccc(-c3ccc(CN4CCC(N5CCCC5)CC4)cc3)n2)c1.O=C(O)C(F)(F)F ?
100

Okay, and COc1ccc2ccccc2c1C=NNc1ccnc2cc(Cl)ccc12 ?
100

Okay, and OCCOCCNCc1cccc(C#Cc2cc3ncnc(Nc4ccc(OCc5cccc(F)c5)c(Cl)c4)c3s2)n1 ?
96

Okay, and Cc1cnc(C(=O)Nc2cccc(-c3ccc(-c4nc5cc(C(F)(F)F)ccc5[nH]4)s3)c2)cn1 ?
86

====

Below is a list of entries, each paired with its recorded Inhibition value.
Tested on: Plasmodium falciparum
Assay: GSK_TCMDC: Inhibition of Plasmodium falciparum 3D7 in whole red blood cells, using parasite LDH activity as an index of growth. Test compounds present at 2uM
Assay type: functional
In your response, put the unit directly after the numeric value.

Solved entries (count: 3):
Cl.N#Cc1ccc(C=CC(=O)NC2CCC(CCN3CCc4ccc(-c5cnccn5)cc4CC3)CC2)cc1 (centres undefined)    100%
COc1ccc(C2CC(=O)C3=C(C2)NC(C)=C(C(=O)OC(C)C)C3c2c(F)cccc2Cl)cc1OC (centres undefined)    93%
Cn1cc(C2CCN(CCCCNC(=O)c3ccc(-c4ccc(C(F)(F)F)cc4)c(CO)c3)CC2)c2ccccc21    88%

// below: Inhibition requested for another compound
// map COc1ccc(CNc2nc(NCc3ccc(C(F)(F)F)cc3)c3cc(OC)c(OC)cc3n2)cc1OC to recorded Inhibition (system: Plasmodium falciparum)
100%

====

System: Plasmodium falciparum
Experiment: GSK_TCMDC: Inhibition of Plasmodium falciparum 3D7 in whole red blood cells, using parasite LDH activity as an index of growth. Test compounds present at 2uM
Assay type: functional
PROPERTY: Inhibition

Solved entries (count: 8):
CC(C)Sc1ccc(Cl)cc1CON1C(=N)N=C(N)NC1(C)C.Cl    93%
Cc1ccc(CNc2cc(C(F)(F)F)nc(-c3ccc(S(C)(=O)=O)cc3)n2)cc1    89%
O=C(Nc1cccc(CN2CCN(C(=O)c3cccs3)CC2)c1)c1cccs1.O=C(O)C(F)(F)F    95%
N#Cc1c(N2CCCCCC2)nc(N)c2c(N)nc3c(c12)CC(=O)N3c1ccc(F)cc1    97%
CCc1ccc(S(=O)(=O)Nc2ccc(CCN3CCC(N4CCCCC4)CC3)cc2)cc1    100%
CCCCCCCCCCNCC(O)c1ccc(O)c(C(=O)OC)c1 (stereo not given)    97%
CC(=O)Nc1ccc(CN2CCC(CNC(=O)c3cc(-c4cccc(C(F)(F)F)c4)cs3)C2)cc1.O=C(O)C(F)(F)F (stereo not given)    97%
COCCCNc1nc2cc(OC)c(OC)cc2c2nc(-c3ccccc3)nn12    95%

State the recorded Inhibition for this entry: CCCCCCCCCC(=O)NCC1CC(Br)=NO1 (stereo not given)
87%

Okay, and Nc1c(Cl)cc(C(O)CNCCCCCOCCc2ccc3occc3c2)cc1Cl (stereo not given) ?
99%

Okay, and COc1ccc(O)cc1/C=N/Nc1ccnc2cc(Cl)ccc12 ?
100%

Okay, and COc1ccc(C#Cc2ccc(-c3c(C)[nH]c(C)c(Cl)c3=O)cc2)cc1 ?
97%

Okay, and Oc1cc(Nc2ccnc3cc(I)ccc23)c(F)cc1Cl ?
92%

Okay, and CC1CN(Cc2csc(Nc3ccccc3)n2)CC(C)O1 (stereo not given) ?
91%

Okay, and COc1ccc(CCN(C)CCOc2ccc(NC(=O)c3cccc4cc5ccccc5nc34)cc2)cc1OC ?
100%

Okay, and CN(C)c1cccc2c1nc(-c1ccco1)n2CCNCc1ccccc1.O=C(O)C(F)(F)F ?
98%

Okay, and O=C(O)C(F)(F)F.O=c1ccc2ccc(F)c3c2n1CC3CN1CCC(NCc2cccc(-c3ccccc3F)c2)CC1 (stereo not given) ?
100%

Okay, and Cn1cnc(CCNC(=O)c2ccc(-c3ccc(-c4nc5cc(C(F)(F)F)ccc5[nH]4)s3)cc2)c1 ?
100%

Okay, and CCNc1cc(C(=O)N[C@@H](Cc2ccccc2)[C@H](O)CN[C@@H](C)c2cccc(OC)c2)cc(N2CCCC2=O)c1.O=CO ?
95%

Okay, and COc1ccccc1/C=C/C(=O)N(C)C1CCN(CCCCCNC(=O)/C=C/c2ccc(Cl)c(Cl)c2)CC1 ?
83%

====

Tested on: Plasmodium falciparum
Assay: GSK_TCMDC: Inhibition of Plasmodium falciparum 3D7 in whole red blood cells, using parasite LDH activity as an index of growth. Test compounds present at 2uM
Type: functional
Below is a list of entries, each paired with its recorded Inhibition value.
Number in %, nothing else.

O=C(Cc1ccccc1)NC(CCN1CCC(N(C2CC2)S(=O)(=O)c2cccc(C(F)(F)F)c2)CC1)c1ccc(Cl)c(Cl)c1 (stereo unspecified)    85
Cc1cccc(Nc2nc(C)cc(N3CCCN(CC4CCCCC4)CC3)n2)c1    83
CCN(CC)CCCC(C)Nc1c2ccccc2nc2c1ccc1ccccc12.Cl (stereo unspecified)    96
O=C(O)C(F)(F)F.c1cc(CN2CCN(c3ccncc3)CC2)cc(-c2ccc(-c3nc4ccccc4[nH]3)s2)c1    100
O=C(CSc1nc(-c2ccccc2Cl)ns1)Nc1cccc(Cl)c1    96
CCCCCCCNC(=O)NCC1CCCN(CCCCCNC(=O)/C=C/c2ccc(Cl)c(Cl)c2)C1 (stereo unspecified)    86
O=C(/C=C/C=C/c1ccccc1)NCCCCCN1CCC(c2c[nH]c3ccccc23)CC1    85
O=C(Nc1cccc(-c2cccc(-c3nc4cc(F)ccc4[nH]3)c2)c1)c1c[nH]cn1    100

State the recorded Inhibition for this entry: COc1cc(Br)c(NC(=O)Nc2ccc(C(F)(F)F)c(O[C@@H]3CCN(C)C3)c2)cc1OC.Cl
97

Okay, and COc1ccc(NC(=O)c2ccc3cc4ccccc4cc3c2)cc1N1CCN(C)CC1 ?
86

Okay, and O=C(O)C(F)(F)F.O=C1CCCN1CCCNCc1cccc(-c2cccc(-c3nc4cc(F)ccc4[nH]3)c2)c1 ?
100

Okay, and O=C1c2cc(I)ccc2SC1c1ccccc1 (stereo unspecified) ?
96

Okay, and COc1cc(OC)cc(C(=O)N2CCOC(CCN3CCC(c4ccccc4)CC3)(c3ccc(Cl)c(Cl)c3)C2)c1 (stereo unspecified) ?
85

Okay, and CS(=O)(=O)c1ccc(CNCc2ccc(-c3ccc(-c4nc5cc(C(F)(F)F)ccc5[nH]4)cc3)cc2)cc1.O=C(O)C(F)(F)F ?
100

Okay, and c1cncc(CNc2ncc(-c3ccsc3)c(-c3nccs3)n2)c1 ?
81

Okay, and O=C(O)C(F)(F)F.O=c1ccc2ccc(F)c3c2n1CC3CN1CCC(NCc2cccc(-c3cccs3)c2)CC1 (stereo unspecified) ?
100

Okay, and COc1cccc2cc(C(=O)N[C@@H](CC(C)C)C(=O)N[C@H](C=NN(C)C(=O)OC(C)(C)C)Cc3ccccc3)oc12 ?
99

Okay, and O=C(NC1CCN(CCN2CCC(c3cn(CCO)c4ccccc34)CC2)CC1)c1ccc(-c2ccc(C(F)(F)F)cc2)cc1 ?
98

Okay, and CCNc1cc(C(=O)N[C@@H](Cc2ccccc2)[C@H](O)CNC23CCC(CC2)C3)cc(N2CCCCS2(=O)=O)c1.Cl ?
97

Okay, and COc1ccc(C2CC(c3cccs3)=NN2C(=O)CNc2ccccc2F)cc1OC (stereo unspecified) ?
87

Okay, and O=C(/C=C/c1ccc(Cl)c(Cl)c1)NCCCCCCN1CCCN(C(=O)Nc2ccc(Cl)c(C(F)(F)F)c2)CC1 ?
100
